Organism: Rattus norvegicus
Assay: Open TG-GATES - Regimen: Single
Type: toxicity, organism-based, Sprague-Dawley
Design: regimen Single, gender Male, age 6 weeks
Settings: in vivo, po, 0 mg/kg, 24 h, tissue Blood, route gavage, dose level Control
readout.name: Lym (%)
Answers are plain numbers, in %.

A selection of reference data follows.
compound	readout.name	u	measured.value
CN(CCOc1ccc(CC2SC(=O)NC2=O)cc1)c1ccccn1.O=C(O)/C=C\C(=O)O (stereo unspecified) [ROSIGLITAZONE MALEATE]	Lym	%	79.4
C=C[C@H]1C[N@@]2CC[C@H]1C[C@@H]2[C@@H](O)c1ccnc2ccc(OC)cc12	Lym	%	78.6
CN(C/C=C/C#CC(C)(C)C)Cc1cccc2ccccc12	Lym	%	79.2

Return reported Lym values for all items listed beneath this line.
1. O=C(O)c1ccccc1Nc1ccccc1
2. CC(S)C(=O)NCC(=O)O (stereo unspecified)
3. COc1cc2ncnc(Nc3ccc(F)c(Cl)c3)c2cc1OCCCN1CCOCC1

Found:
1. 80.6
2. 77.8
3. 78.5

----------
Species on record: Rattus norvegicus
Experiment: Open TG-GATES - Regimen: Daily Repeat
Assay type: toxicity, organism-based, Sprague-Dawley
Parameters: regimen Daily Repeat, gender Male, age 6 weeks
Settings: in vivo, po, 0 mg/kg, […], tissue Plasma, route gavage, dose level Control, time 14 day
What GLC was measured for each of the following?
The reply should consist of the numeric value with the unit placed after it.

A selection of reference data follows.
compound	measured.value
CC(S)C(=O)NCC(=O)O (stereo not drawn) [TIOPRONIN]	205.8 mg/dL
CCO [ALCOHOL]	204.6 mg/dL

Lab book: GLC of `CCN(CC)C(=S)SSC(=S)N(CC)CC` noted as 204.2 mg/dL

----------
What A/G was measured for each of the following?
Organism: Rattus norvegicus
Experiment: Open TG-GATES - Regimen: Single
Type: toxicity, organism-based, Sprague-Dawley
Parameters: regimen Single, gender Male, age 6 weeks
Conditions: in vivo, po, 0 mg/kg, 24 h, tissue Plasma, route gavage, dose level Control
Give bare numbers.

A selection of reference data follows.
molecule	A/G
CC(=O)[C@@]1(O)CC[C@H]2[C@@H]3C=C(Cl)C4=CC(=O)CC[C@]4(C)[C@H]3CC[C@@]21C	1.2
Nc1ccc(Cc2ccc(N)cc2)cc1	0.9
O=c1ccc2ccccc2o1	1.9

Return reported A/G values for all items listed beneath this line.
1. CN(CCOc1ccc(CC2SC(=O)NC2=O)cc1)c1ccccn1.O=C(O)/C=C\C(=O)O (configuration not stated) [ROSIGLITAZONE MALEATE]
2. CCO
3. CN(C/C=C/C#CC(C)(C)C)Cc1cccc2ccccc12
4. CCCCNC(=O)NS(=O)(=O)c1ccc(C)cc1 [TOLBUTAMIDE]

Found:
[2.3, 2.6, 1.6, 0.9]

----------
Species: Rattus norvegicus
Experiment: Open TG-GATES - Regimen: Daily Repeat
Assay type: toxicity, organism-based, Sprague-Dawley
Parameters: regimen Daily Repeat, gender Male, age 6 weeks
Details: in vivo, po, 0 mg/kg, […], tissue Plasma, route gavage, dose level Control, time 28 day
What TC was measured for each of the following?
Numbers only, in mg/dL.

Return reported TC values for all items listed beneath this line.
1. CCO [ALCOHOL]
2. O=c1ccc2ccccc2o1 [COUMARIN]
3. O=C(O)c1ccccc1Nc1ccccc1 [FENAMIC ACID]
4. NS(=O)(=O)c1cc(C(=O)O)c(NCc2ccco2)cc1Cl [FUROSEMIDE]

Found:
1. 76.2
2. 63
3. 64.8
4. 64.8

----------
Species: Rattus norvegicus
Experiment: Open TG-GATES - Regimen: Daily Repeat
Type: toxicity, organism-based, Sprague-Dawley
Parameters: regimen Daily Repeat, gender Male, age 6 weeks
Details: in vivo, po, 0 mg/kg, 72 h, tissue Blood, route gavage, dose level Control, time 3 day
What Ht was measured for each of the following?
Numbers only, in %.

A selection of reference data follows.
COc1ccc([C@@H]2Sc3ccccc3N(CCN(C)C)C(=O)[C@@H]2OC(C)=O)cc1 41.3
CN(C/C=C/C#CC(C)(C)C)Cc1cccc2ccccc12 39.9

// next item, Ht requested
Lab book: Ht of `CCCCC1C(=O)N(c2ccccc2)N(c2ccccc2)C1=O` noted as 42.7

----------
Species on record: Rattus norvegicus
Assay: Open TG-GATES - Regimen: Single
Format: toxicity, organism-based, Sprague-Dawley
Set-up: regimen Single, gender Male, age 6 weeks
Conditions: in vivo, po, 0 mg/kg, 24 h, tissue Plasma, route gavage, dose level Control
Threshold check on DBIL: strictly below 0.006 mg/dL is MET; on or above 0.006 mg/dL is NOT MET.

Below are worked cases with known answers.
molecule	classification
NS(=O)(=O)c1cc(C(=O)O)c(NCc2ccco2)cc1Cl [FUROSEMIDE]	NOT MET
O=c1ccc2ccccc2o1 [COUMARIN]	MET
CN(CCOc1ccc(CC2SC(=O)NC2=O)cc1)c1ccccn1.O=C(O)/C=C\C(=O)O (stereo unspecified) [ROSIGLITAZONE MALEATE]	NOT MET

Lookup: Below 0.006 mg/dL on DBIL? Entry CCCCNC(=O)NS(=O)(=O)c1ccc(C)cc1 [TOLBUTAMIDE]
Found: NOT MET

Lookup: Below 0.006 mg/dL on DBIL? Entry COc1cc2ncnc(Nc3ccc(F)c(Cl)c3)c2cc1OCCCN1CCOCC1 [GEFITINIB]
Found: MET

----------
Organism: Rattus norvegicus
Assay: Open TG-GATES - Regimen: Daily Repeat
Assay type: toxicity, organism-based, Sprague-Dawley
Parameters: regimen Daily Repeat, gender Male, age 6 weeks
Conditions: in vivo, po, 0 mg/kg, […], tissue Blood, route gavage, dose level Control, time 14 day
readout.name: Lym (%)
Numbers only, in %.

A selection of reference data follows.
compound	Lym / %
O=c1ccc2ccccc2o1	81
NS(=O)(=O)c1cc(C(=O)O)c(NCc2ccco2)cc1Cl [FUROSEMIDE]	81
CCCCNC(=O)NS(=O)(=O)c1ccc(C)cc1 [TOLBUTAMIDE]	78.4
COc1ccc([C@@H]2Sc3ccccc3N(CCN(C)C)C(=O)[C@@H]2OC(C)=O)cc1	82.2
CC(=O)[C@@]1(O)CC[C@H]2[C@@H]3C=C(Cl)C4=CC(=O)CC[C@]4(C)[C@H]3CC[C@@]21C	80.8

// next item, Lym requested
Lab book: Lym of `CCO` noted as 81.4

----------
Species on record: Rattus norvegicus
Test: Open TG-GATES - Regimen: Daily Repeat
Format: toxicity, organism-based, Sprague-Dawley
Design: regimen Daily Repeat, gender Male, age 6 weeks
Settings: in vivo, po, 0 mg/kg, 72 h, tissue Plasma, route gavage, dose level Control, time 3 day
readout.name: DBIL
The reply should consist of the numeric value with the unit placed after it.

A selection of reference data follows.
compound	DBIL
CN(CCOc1ccc(CC2SC(=O)NC2=O)cc1)c1ccccn1.O=C(O)/C=C\C(=O)O (stereo not given) [ROSIGLITAZONE MALEATE]	0.014 mg/dL
O=C(O)c1ccccc1Nc1ccccc1	0.01 mg/dL
NS(=O)(=O)c1cc(C(=O)O)c(NCc2ccco2)cc1Cl [FUROSEMIDE]	0.016 mg/dL
CCCCC1C(=O)N(c2ccccc2)N(c2ccccc2)C1=O	0 mg/dL

// next item, DBIL requested
Lab book: DBIL of `Nc1ccc(Cc2ccc(N)cc2)cc1` noted as 0.018 mg/dL

----------
Organism: Rattus norvegicus
Assay: Open TG-GATES - Regimen: Single
Type: toxicity, organism-based, Sprague-Dawley
Parameters: regimen Single, gender Male, age 6 weeks
Conditions: in vivo, po, 0 mg/kg, 3 h, tissue Liver, route gavage, dose level Control
What LIVER was measured for each of the following?
Numbers only, in g.

molecule	LIVER [g]
CCO	9.6
CN(CCOc1ccc(CC2SC(=O)NC2=O)cc1)c1ccccn1.O=C(O)/C=C\C(=O)O (stereo not drawn) [ROSIGLITAZONE MALEATE]	9.7

// next item, LIVER requested
Lab book: LIVER of `O=c1ccc2ccccc2o1` noted as 8.4

----------
What Hb was measured for each of the following?
Organism: Rattus norvegicus
Experiment: Open TG-GATES - Regimen: Single
Format: toxicity, organism-based, Sprague-Dawley
Parameters: regimen Single, gender Male, age 6 weeks
Conditions: in vivo, po, 0 mg/kg, 3 h, tissue Blood, route gavage, dose level Control
One number for each entry, in g/dL.

A selection of reference data follows.
compound	Hb [g/dL]
CC(=O)[C@@]1(O)CC[C@H]2[C@@H]3C=C(Cl)C4=CC(=O)CC[C@]4(C)[C@H]3CC[C@@]21C	13.3
CN(CCOc1ccc(CC2SC(=O)NC2=O)cc1)c1ccccn1.O=C(O)/C=C\C(=O)O (stereo unspecified) [ROSIGLITAZONE MALEATE]	13.1
CCO	13.3
Nc1ccc(Cc2ccc(N)cc2)cc1	12.7
COc1ccc([C@@H]2Sc3ccccc3N(CCN(C)C)C(=O)[C@@H]2OC(C)=O)cc1	13

// next item, Hb requested
Lab book: Hb of `CN(C)CCCN1c2ccccc2Sc2ccc(Cl)cc21` noted as 13.7
